Data credit: ChEMBL document CHEMBL2203103

Target: Diacylglycerol O-acyltransferase 1 (Rattus norvegicus)
Sequence (Q9ERM3 whole entry): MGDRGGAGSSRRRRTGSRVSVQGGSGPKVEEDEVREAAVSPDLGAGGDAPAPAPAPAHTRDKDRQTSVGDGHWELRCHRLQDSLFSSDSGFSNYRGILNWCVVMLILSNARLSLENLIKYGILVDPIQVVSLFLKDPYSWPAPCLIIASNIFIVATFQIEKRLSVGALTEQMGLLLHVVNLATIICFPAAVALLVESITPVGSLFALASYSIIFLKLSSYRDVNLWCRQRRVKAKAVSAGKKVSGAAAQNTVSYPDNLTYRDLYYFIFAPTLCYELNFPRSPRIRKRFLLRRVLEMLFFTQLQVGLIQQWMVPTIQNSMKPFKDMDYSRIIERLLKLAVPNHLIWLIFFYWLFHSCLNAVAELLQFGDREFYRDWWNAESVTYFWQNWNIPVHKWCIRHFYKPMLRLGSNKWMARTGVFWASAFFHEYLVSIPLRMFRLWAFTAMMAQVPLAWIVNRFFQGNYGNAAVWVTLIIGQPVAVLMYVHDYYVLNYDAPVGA
pIC50: −log10 of the molar value.
Measured pIC50 accompanies every entry in the list below.

{"columns": ["Smiles repr", "Target under test", "Reading qualifier", "pIC50"],
 "data": [
  ["O=C(NCc1cccs1)c1ccc2[nH]c(COc3ccc(C45CC6CC(CC(C6)C4)C5)cc3)nc2c1", "Diacylglycerol O-acyltransferase 1 (Rattus norvegicus)", "<", 4.30],
  ["NC(=O)c1ccc2nc(COc3ccc(C45CC6CC(CC(C6)C4)C5)cc3)[nH]c2c1", "Diacylglycerol O-acyltransferase 1 (Rattus norvegicus)", "<", 4.30],
  ["O=C(NCc1ccco1)c1ccc2nc(COc3ccccc3)[nH]c2c1", "Diacylglycerol O-acyltransferase 1 (Rattus norvegicus)", "<", 4.30],
  ["Cc1ccoc1CNC(=O)c1ccc2nc(COc3ccc(C45CC6CC(CC(C6)C4)C5)cc3)[nH]c2c1", "Diacylglycerol O-acyltransferase 1 (Rattus norvegicus)", "=", 4.60],
  ["CC1(C)Oc2ncnc(N)c2N=C1c1ccc([C@H]2CC[C@H](CC(=O)O)CC2)cc1", "Diacylglycerol O-acyltransferase 1 (Rattus norvegicus)", "=", 5.51],
  ["Cc1ccc(CNC(=O)c2ccc3nc(COc4ccc(C56CC7CC(CC(C7)C5)C6)cc4)[nH]c3c2)o1", "Diacylglycerol O-acyltransferase 1 (Rattus norvegicus)", "=", 4.94],
  ["CC(C)NC(=O)c1ccc2nc(COc3ccc(C45CC6CC(CC(C6)C4)C5)cc3)[nH]c2c1", "Diacylglycerol O-acyltransferase 1 (Rattus norvegicus)", "=", 4.70],
  ["CC(C)(C)c1ccc(OCc2nc3cc(C(=O)NCc4ccco4)ccc3[nH]2)cc1", "Diacylglycerol O-acyltransferase 1 (Rattus norvegicus)", "=", 5.05],
  ["O=C(O)c1ccc2[nH]c(COc3ccc(C45CC6CC(CC(C6)C4)C5)cc3)nc2c1", "Diacylglycerol O-acyltransferase 1 (Rattus norvegicus)", "<", 4.30],
  ["O=C(NC[C@@H]1CCCO1)c1ccc2nc(COc3ccc(C45CC6CC(CC(C6)C4)C5)cc3)[nH]c2c1", "Diacylglycerol O-acyltransferase 1 (Rattus norvegicus)", "=", 5.02]
]}
